- protocol_text: basal CRE-LacZ reporter activity in PC12 – cell-based, unstimulated, primary screen (AID 1145)
- test_settings: no forskolin, luminescence, 4.5 h, higher = more signal, called active from +8 up or from −8 down
Listed below: z-score values for each entry.

# cpd_smiles, z-score
data = [
    ("COCCOC(=O)N1C(=O)[C@@]2(c3cc(C#CCC(C(=O)OC)C(=O)OC)ccc31)[C@H](C(=O)N1CCCCCCC1)[C@H]1C(=O)O[C@H](c3ccccc3)[C@H](c3ccccc3)N1[C@@H]2c1ccc(O)cc1", -0.882),
    ("COc1ccc(C#Cc2ccc3c(c2)[C@]2(C(=O)N3)[C@H](c3ccc(OCCO)cc3)N3[C@H](c4ccccc4)[C@H](c4ccccc4)OC(=O)[C@H]3[C@@H]2C(=O)N2CCN(c3ncccn3)CC2)cc1", 0.0653),
    ("CC(C)(C)OC(=O)CC[C@@]1(C(=O)N2CCCCC2)N=C(c2ccc(OCCCO)cc2)O[C@@H]1c1ccccc1CN=[N+]=[N-]", 0.414),
    ("COc1cc2c(cc1OC)CN(C(=O)[C@@H]1[C@H]3C(=O)O[C@H](c4ccccc4)[C@H](c4ccccc4)N3[C@H](c3ccc(OCCO)cc3)[C@@]13C(=O)Nc1ccc(C#CCCO)cc13)CC2", -0.465),
    ("COC(=O)C(CC#Cc1ccc2c(c1)[C@]1(C(=O)N2)[C@H](c2ccc(O)cc2)N2[C@H](c3ccccc3)[C@H](c3ccccc3)OC(=O)[C@H]2[C@@H]1C(N)=O)C(=O)OC", 0.212),
]

###

- assay_system: Torsin-1A (Homo sapiens)
- protocol_text: torsin A mutant lysate binding on microarrays – cell lysate, small-molecule microarray, COS7 lysate, 635/667 nm fluorescence, primary screen (AID 1150);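 note: score pools 667 nm emission and signal to noise measuring lysate protein binding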
- test_settings: COS7 hTOR1A mutant lysate, 635 nm fluorescence, higher = more signal
Listed below: composite z-score values for each entry.
endpoint_name: composite z-score

# compound, endpoint_name, obs_value
rows = [
    ("CN(C)CCCCNC(=O)[C@H]1C[C@H]2C(=O)N[C@@H](CCCC[N+](C)(C)C)C(=O)N2[C@H]1c1cccc(OCCO)c1", "composite z-score", 1.01),
    ("CN(C)CCCNC(=O)[C@@]1(Cc2ccccc2I)c2ccccc2C(=O)N(Cc2ccccc2Cl)[C@H]1c1ccc(CO)cc1", "composite z-score", -0.609),
    ("COC(=O)[C@]1(Cc2ccccc2CN=[N+]=[N-])N=C(c2ccc(OCCCO)cc2)O[C@@H]1c1ccccc1CN=[N+]=[N-]", "composite z-score", -0.27),
    ("CC(C)C[C@H]1NC(=O)[C@H](C)NC(=O)[C@@]23C(=O)N[C@@H](Cc4ccccc4)C2[C@H](C)[C@@]2(C)O[C@H]2C3/C=C/C/C=C\\CNC1=O (some centres undefined)", "composite z-score", 0.0821),
]

###

- protocol_text: Pseudomonas biofilm growth suppression – PAO1 strain, BacTiter-Glo luminescence, LB-PBS, primary screen (AID 1144)
- test_settings: P. aeruginosa PAO1 biofilm, 12 h, higher = more signal
The source made the active and inactive calls. The rule behind the calls is not given here.
Listed below: z-score values for each entry.

# compound, z-score
data = [
    ("C[N+](C)(C)CCCCNC(=O)[C@H]1C[C@H]2C(=O)NCC(=O)N2[C@H]1c1ccc(O)cc1", "-0.895 (inactive)"),
    ("NC(=O)NCC#Cc1ccc2c(c1)[C@]1(C(=O)N2)[C@H](c2ccc(O)cc2)N2[C@H](c3ccccc3)[C@H](c3ccccc3)OC(=O)[C@H]2[C@@H]1C(=O)NC[C@H](O)c1ccccc1", "0.502 (inactive)"),
    ("COc1cc(C(O)C2C=CC3C(=O)NC(=O)C3N2Nc2ccc(Cl)cc2Cl)cc(OC)c1OC (centres undefined)", "-0.591 (inactive)"),
    ("COc1ccccc1CN1C(=O)c2ccccc2[C@@]2(Cc3ccccc3N(C3CC3)C2=O)[C@@H]1c1ccc(CO)cc1", "1.13 (inactive)"),
]
